target: von Hippel-Lindau disease tumor suppressor/AKT (Homo sapiens) (UniProt P31751+Q9Y243+P31749+P40337); experiment: Protac activity at VHL/AKT in human BT-474 cells assessed as reduction in total AKT protein level at 1 to 10 uM measured after 24 hrs by Western blot analysis; format: cell-based; conditions: dose 1-10 µM
Activity calls are given as the source filed them. No cut-off for these calls is given here.
# valid calls are active, inactive; nothing else

(Q) Call for entry Cc1ncsc1-c1ccc(CNC(=O)[C@@H]2C[C@@H](O)CN2C(=O)[C@@H](NC(=O)CCOCCOCCOCCC(=O)N2CCN(CC[C@H](NC(=O)C3(N)CCN(c4ncnc5[nH]ccc45)CC3)c3ccc(Cl)cc3)CC2)C(C)(C)C)cc1 :
(A) inactive

(Q) Would you mind telling me which call this test gave Cc1ncsc1-c1ccc(CNC(=O)[C@@H]2C[C@@H](O)CN2C(=O)[C@@H](NC(=O)CCOCCOCCC(=O)N2CCN(CC[C@H](NC(=O)C3(N)CCN(c4ncnc5[nH]ccc45)CC3)c3ccc(Cl)cc3)CC2)C(C)(C)C)cc1 ?
(A) inactive

(Q) Each molecule tested received a call. Report the one for Cc1ncsc1-c1ccc(CNC(=O)[C@@H]2C[C@@H](O)CN2C(=O)[C@@H](NC(=O)CCOCCC(=O)N2CCN(CC[C@H](NC(=O)C3(N)CCN(c4ncnc5[nH]ccc45)CC3)c3ccc(Cl)cc3)CC2)C(C)(C)C)cc1 .
(A) inactive

(Q) Could you check what this test reported for Cc1ncsc1-c1ccc(CNC(=O)[C@@H]2C[C@@H](O)CN2C(=O)[C@@H](NC(=O)CCC(=O)N2CCN(CC[C@H](NC(=O)C3(N)CCN(c4ncnc5[nH]ccc45)CC3)c3ccc(Cl)cc3)CC2)C(C)(C)C)cc1 ?
(A) inactive

(Q) Tell me the assay call for Cc1ncsc1-c1ccc(CNC(=O)[C@@H]2C[C@@H](O)CN2C(=O)[C@@H](NC(=O)CCCCCC(=O)N2CCN(CC[C@H](NC(=O)C3(N)CCN(c4ncnc5[nH]ccc45)CC3)c3ccc(Cl)cc3)CC2)C(C)(C)C)cc1 please.
(A) active

(Q) Dear all, I need the recorded test outcome for Cc1ncsc1-c1ccc(CNC(=O)[C@@H]2C[C@@H](O)CN2C(=O)[C@@H](NC(=O)COCCOCCOCCOCCOCC(=O)N2CCN(CC[C@H](NC(=O)C3(N)CCN(c4ncnc5[nH]ccc45)CC3)c3ccc(Cl)cc3)CC2)C(C)(C)C)cc1 , thank you.
(A) inactive

(Q) For Cc1ncsc1-c1ccc(CNC(=O)[C@@H]2C[C@@H](O)CN2C(=O)[C@@H](NC(=O)CCOCCOCCOCCOCCC(=O)N2CCN(CC[C@H](NC(=O)C3(N)CCN(c4ncnc5[nH]ccc45)CC3)c3ccc(Cl)cc3)CC2)C(C)(C)C)cc1 , which call appears in the assay record?
(A) inactive

====

assay: Protac activity at CRBN/AKT in human BT-474 cells assessed as reduction in AKT protein level at 10 uM measured after 24 hrs by Western blot analysis
Active and inactive are the calls of the source. The calls are words filed in the database; no cut-off is given here.
Result category, one only: active, inactive

Molecule	Label Class
NC1(C(=O)N[C@@H](CCN2CCN(C(=O)CCOCCOCCOCCOCCOCCNc3cccc4c3CN(C3CCC(=O)NC3=O)C4=O)CC2)c2ccc(Cl)cc2)CCN(c2ncnc3[nH]ccc23)CC1 (some centres undefined)	inactive
NC1(C(=O)N[C@@H](CCN2CCN(C(=O)CCOCCOCCOCCOCCOCCCc3cccc4c3C(=O)N(C3CCC(=O)NC3=O)C4=O)CC2)c2ccc(Cl)cc2)CCN(c2ncnc3[nH]ccc23)CC1 (some centres undefined)	inactive

(Q) Dear all, I need the recorded test outcome for NC1(C(=O)N[C@@H](CCN2CCN(C(=O)CCOCCOCCOCCOCCOCCOc3cccc4c3C(=O)N(C3CCC(=O)NC3=O)C4=O)CC2)c2ccc(Cl)cc2)CCN(c2ncnc3[nH]ccc23)CC1 (some centres undefined) , thank you.
(A) inactive

(Q) What is the recorded call for this molecule in the test? NC1(C(=O)N[C@@H](CCN2CCN(C(=O)CCOCCNc3cccc4c3C(=O)N(C3CCC(=O)NC3=O)C4=O)CC2)c2ccc(Cl)cc2)CCN(c2ncnc3[nH]ccc23)CC1 (some centres undefined)
(A) active
